Ref: patent US4446325A

Assay: in vivo
Settings: mouse, oral, ddy male mice, mortality one week after administration
experimentalReadout: LD50 at 168 h
Hi, when you answer, please include the unit after the number. Thanks!

1. COC(=O)C1=C(C)NC(C)=C(C(=O)OCC2CC2)C1c1cccc([N+](=O)[O-])c1 (stereo not shown) [Compound C]: 1450 mg/kg
2. CCCOC(=O)C1=C(C)NC(C)=C(C(=O)OCC2CC2)C1c1cccc([N+](=O)[O-])c1 (stereo not shown) [Compound E]: 2000 mg/kg

Which LD50 at 168 h is listed for CCOC(=O)C1=C(C)NC(C)=C(C(=O)OCC2CC2)C1c1cccc([N+](=O)[O-])c1 (stereo not shown) [Compound D] ? 2000 mg/kg

Try this molecule next: COC(=O)C1=C(C)NC(C)=C(C(=O)OCC(C)C)C1c1ccccc1[N+](=O)[O-] (stereo not shown) [Compound F, reference compound] 465 mg/kg

----------
Assay: Stability to light (sun light, quartz dish, visual appearance)
Type: physicochemical
Set-up: key: (-): No change
Settings: 1 hour sun light
experimentalReadout: Change in appearance on light exposure

1. CCCOC(=O)C1=C(C)NC(C)=C(C(=O)OCC2CC2)C1c1cccc([N+](=O)[O-])c1 (stereo not shown) [Compound E]: (-)
2. CCOC(=O)C1=C(C)NC(C)=C(C(=O)OCC2CC2)C1c1cccc([N+](=O)[O-])c1 (stereo not shown) [Compound D]: (-)
3. COC(=O)C1=C(C)NC(C)=C(C(=O)OCC2CC2)C1c1cccc([N+](=O)[O-])c1 (stereo not shown) [Compound C]: (-)
4. COC(=O)C1=C(C)NC(C)=C(C(=O)OCC2(C)OCCO2)C1c1cccc([N+](=O)[O-])c1 (stereo not shown) [Compound A]: (-)
